- TARGET OR TEST SYSTEM: SCD5 (Homo sapiens, UniProt Q86SK9)
- Construct: host or cells: S. cerevisiae ole1Δ strain (W303 pdr1Δ pdr3Δ background), plasmid pRS316 with TDH3 promoter and CYC1 terminator
- Sequence (Q86SK9 whole entry): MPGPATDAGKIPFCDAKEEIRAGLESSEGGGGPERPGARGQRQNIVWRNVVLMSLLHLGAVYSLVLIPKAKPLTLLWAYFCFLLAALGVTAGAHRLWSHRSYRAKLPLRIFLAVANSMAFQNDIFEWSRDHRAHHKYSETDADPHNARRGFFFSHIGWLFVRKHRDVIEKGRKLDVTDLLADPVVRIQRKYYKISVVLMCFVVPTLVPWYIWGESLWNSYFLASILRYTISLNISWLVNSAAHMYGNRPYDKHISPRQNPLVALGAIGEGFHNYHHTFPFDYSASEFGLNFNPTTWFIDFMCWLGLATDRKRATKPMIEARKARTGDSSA
- ASSAY PROTOCOL: Growth inhibition of humanized yeast strain expressing SCD5 as sole desaturase
- Format: cell-based
- MEASUREMENT CONTEXT: humanized yeast strain, 40 h
REPORTED ENDPOINT: IC50 (µM)
Express the result in µM but write the number alone.

COC(=O)N1CCC(c2noc(-c3ccc4cnn(C5CCCC5)c4c3)n2)CC1 = 0.079
CC(C)(C)OC(=O)N1CCC(c2noc(-c3ccc(=O)n(C4COC4)c3)n2)CC1 = 0.494
COC(=O)N1CCC(c2cc(-c3ccc4cnn(C5COC5)c4c3)on2)CC1 = 3.16

Ask | Report IC50 for O=C(OC1CC1)N1CCC(c2noc(-c3cnc4cnn(C5COC5)c4c3)n2)CC1 please.
Reply | 0.096

Ask | Likewise for O=C(N1CCC(c2noc(-c3ccnc(C4CCOC4)c3)n2)CC1)C1(C(F)(F)F)CC1 (centres unmarked) ?
Reply | 0.84

Ask | Likewise for CC(C)(C)OC(=O)N1CCN(c2noc(-c3ccnc(Cl)c3)n2)CC1 ?
Reply | 16.5

Ask | Likewise for CC(C)(C)C(=O)N1CC2(CC(c3noc(-c4ccc5cnn(C6COC6)c5c4)n3)C2)C1 ?
Reply | 3.91

Ask | Likewise for CCC(=O)N1CCC(c2cc(-c3cc4c(cn3)cnn4C3COC3)no2)CC1 ?
Reply | 5.46

Ask | Likewise for CC(C)(C)OC(=O)N1CC=C(c2nsc(-c3ccc4cnn(C5COC5)c4c3)n2)CC1 ?
Reply | 0.053

Ask | Likewise for O=C(C1CC1)N1CCC(c2noc(-c3ccnc(NC4COC4)c3)n2)CC1 ?
Reply | 10.6

====

- TARGET OR TEST SYSTEM: SCD5 (Homo sapiens)
- Construct: host or cells: S. cerevisiae ole1Δ strain (W303 pdr1Δ pdr3Δ background), plasmid pRS316 with TDH3 promoter and CYC1 terminator
- ASSAY PROTOCOL: Growth inhibition of humanized yeast strain expressing SCD5 as sole desaturase
- Assay type: cell-based
- MEASUREMENT CONTEXT: yeast strain expressing human SCD5 as sole desaturase; Table 8
IC50: recorded values
Enter the number, and then the unit.

CC1(OC(=O)N2CCC(c3noc(-c4ccnc(-c5cnoc5)c4)n3)CC2)CC1 [Compound 1220] = 0.1 µM

Ask | Report IC50 for CC(C)S(=O)(=O)N1CCC(c2noc(-c3ccc4cnn(C5COC5)c4c3)n2)CC1 [Compound 1218] please.
Reply | 0.16 µM

Ask | Likewise for CC1(OC(=O)N2CCC(c3noc(-c4ccnc(-c5cocn5)c4)n3)CC2)CC1 [Compound 1310] ?
Reply | 0.47 µM

====

- TARGET OR TEST SYSTEM: Ole1 (Saccharomyces cerevisiae, UniProt P21147)
- Construct: expressed in transfected cells; host or cells: S. cerevisiae ole1Δ strain (W303 pdr1Δ pdr3Δ background), plasmid pRS316 with TDH3 promoter and CYC1 terminator
- Sequence (P21147 whole entry): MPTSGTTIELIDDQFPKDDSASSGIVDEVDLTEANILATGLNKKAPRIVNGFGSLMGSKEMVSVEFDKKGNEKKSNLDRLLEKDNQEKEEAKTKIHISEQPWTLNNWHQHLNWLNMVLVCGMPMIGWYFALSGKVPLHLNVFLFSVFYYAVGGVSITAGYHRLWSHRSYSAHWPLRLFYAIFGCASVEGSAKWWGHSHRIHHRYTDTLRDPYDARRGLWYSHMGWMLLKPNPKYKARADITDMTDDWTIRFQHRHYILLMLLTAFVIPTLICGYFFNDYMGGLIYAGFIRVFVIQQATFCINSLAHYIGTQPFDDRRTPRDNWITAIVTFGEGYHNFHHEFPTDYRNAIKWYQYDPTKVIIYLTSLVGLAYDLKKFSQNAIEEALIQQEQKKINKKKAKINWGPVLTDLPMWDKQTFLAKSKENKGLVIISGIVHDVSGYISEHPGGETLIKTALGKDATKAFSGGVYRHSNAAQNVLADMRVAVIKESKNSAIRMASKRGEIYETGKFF
- ASSAY PROTOCOL: Growth inhibition of yeast strain expressing Ole1 as sole desaturase
- Format: cell-based
- MEASUREMENT CONTEXT: yeast strain expressing Ole1 as sole desaturase
- Procedure: Strain oleΔ (yeast ole1 deletion mutant) was constructed by deleting OLE1 with NAT-MX6 in BY4741, amplifying the deletion cassette from the genomic DNA of the resulting strain with primers flanking the ORF by 1000 bp upstream and downstream, transforming the resulting deletion cassette into W303 pdr1Δ pdr3Δ, and plating transformants on YPD media containing G418 (200 μg/mL) and nourseothricin ([…]) with 0.01% TWEEN®-20 and 0.5 mM oleic and palmitoleic acids. […]
OLE1 % Max Inhibition: recorded values
Express the result in % but write the number alone.

Ask | Report OLE1 % Max Inhibition for COc1ccccc1-c1noc(C2CCN(C(=O)CNC(=O)c3ccc(C)c(C)c3)CC2)n1 please.
Reply | 92.35
